- target under test: Phosphatidylinositol 4,5-bisphosphate 3-kinase catalytic subunit gamma isoform (Homo sapiens)
- Sequence (P48736 whole entry, canonical isoform): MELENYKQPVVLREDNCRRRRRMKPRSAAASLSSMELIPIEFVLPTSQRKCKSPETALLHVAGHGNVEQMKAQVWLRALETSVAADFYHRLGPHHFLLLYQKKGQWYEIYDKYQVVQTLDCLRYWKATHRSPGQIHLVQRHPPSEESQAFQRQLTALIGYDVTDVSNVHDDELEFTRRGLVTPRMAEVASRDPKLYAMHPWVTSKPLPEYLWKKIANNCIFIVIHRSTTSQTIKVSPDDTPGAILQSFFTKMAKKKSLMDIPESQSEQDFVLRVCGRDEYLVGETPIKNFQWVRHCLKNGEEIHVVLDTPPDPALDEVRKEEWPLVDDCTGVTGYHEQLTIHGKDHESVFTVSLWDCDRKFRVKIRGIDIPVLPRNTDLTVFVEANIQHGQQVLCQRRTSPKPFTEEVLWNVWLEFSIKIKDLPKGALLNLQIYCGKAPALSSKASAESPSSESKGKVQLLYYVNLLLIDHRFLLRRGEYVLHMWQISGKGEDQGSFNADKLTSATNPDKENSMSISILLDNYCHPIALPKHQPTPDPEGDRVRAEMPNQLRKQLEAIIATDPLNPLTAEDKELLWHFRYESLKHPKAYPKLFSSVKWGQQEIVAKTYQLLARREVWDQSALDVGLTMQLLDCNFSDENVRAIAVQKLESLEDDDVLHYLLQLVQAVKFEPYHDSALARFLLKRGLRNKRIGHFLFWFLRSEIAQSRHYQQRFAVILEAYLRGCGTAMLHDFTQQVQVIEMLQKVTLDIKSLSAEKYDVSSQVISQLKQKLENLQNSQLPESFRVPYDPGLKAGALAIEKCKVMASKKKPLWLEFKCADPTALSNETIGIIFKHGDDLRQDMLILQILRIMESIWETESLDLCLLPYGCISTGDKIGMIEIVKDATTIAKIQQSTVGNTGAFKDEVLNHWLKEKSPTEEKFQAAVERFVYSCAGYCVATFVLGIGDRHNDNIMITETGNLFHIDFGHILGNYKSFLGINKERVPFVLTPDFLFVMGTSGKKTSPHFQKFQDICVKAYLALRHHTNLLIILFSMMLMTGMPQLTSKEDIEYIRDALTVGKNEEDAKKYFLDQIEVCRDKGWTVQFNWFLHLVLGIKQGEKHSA
- test summary: Inhibition of human PI3Kgamma
- recorded conditions: read-out: IC50
pIC50: −log10 of the molar value.
measured property: pIC50

Illustrative cases are given below, each with its answer.
{"columns": ["molecule", "result number"],
 "data": [
  ["COc1cccc(Nc2nccc(-c3ccc(F)cc3)n2)c1", 6.48],
  ["Clc1ccc(Nc2nccc(-c3ccc(Cl)cc3Cl)n2)c(Cl)c1", 6.57],
  ["O=[N+]([O-])c1ccc(Nc2nccc(-c3ccc(F)cc3)n2)cc1", 6.61],
  ["O=[N+]([O-])c1ccc(Nc2nccc(-c3ccc(Br)cc3)n2)cc1", 6.58]
]}

[I] COc1ccc(-c2ccnc(Nc3cccc(OC)c3)n2)cc1
[II] CC(C)c1ccccc1Nc1nccc(-c2ccc(Br)cc2)n1
Return label of the item with the larger pIC50. Candidates: I , II . Identify your selection by its label.
I
